System: DRIVER-selected RNA biosensor (aptazyme) pool
assaySummary: maximum fold change of ribozyme cleavage across biosensor pool versus no-compound control; higher = stronger biosensor response (ligand inhibits cleavage)
runConditions: 10 µM
For each record, write down the corresponding maximum fold change.
Lab note: record the figure alone, no unit after it.

Enquiry: // lookup maximum fold change for Cc1oc2ncn3nc(-c4ccc(F)cc4)nc3c2c1C
Return: 10.5

Enquiry: // lookup maximum fold change for CCOC(=O)C1=C(C)Nc2nc(-c3cccs3)nn2C1c1ccc(C#N)cc1 (stereo not given)
Return: 1.85

Enquiry: // lookup maximum fold change for O=C(Cn1ncc2c1-c1ccccc1OC2)N1CCC(Cc2ccccc2)CC1
Return: 3.52

Enquiry: // lookup maximum fold change for C=Cc1ccc(Cn2c(C)c(CNCc3ccc(CC)cc3)c(C(=O)O)c2C)cc1
Return: 3.37

Enquiry: // lookup maximum fold change for COc1ccc(C2=NN(CCC(=O)N3CCCCC3)C(=O)CC2)cc1
Return: 4.11

Enquiry: // lookup maximum fold change for CCOc1ccccc1CNC(=O)c1ccc(CS(=O)Cc2ccc(Cl)cc2)o1 (stereo not given)
Return: 4.15

Enquiry: // lookup maximum fold change for CCOc1cc2c(cc1OCC)C1C(C(=O)N(CC)Cc3ccccc3)c3ccccc3C(=O)N1CC2 (stereo not given)
Return: 3.54

Enquiry: // lookup maximum fold change for COc1ccccc1OCC(O)Cn1c[n+](C)c2cc(C)c(C)cc21 (stereo not given)
Return: 3.47

Enquiry: // lookup maximum fold change for COc1cccc(/C=C(\C#N)c2nc3ccccc3[nH]2)c1O
Return: 11.2

Enquiry: // lookup maximum fold change for Cc1ccc(-c2noc(CCC(=O)NCCN3CCOCC3)n2)cc1
Return: 3.61

Enquiry: // lookup maximum fold change for CCOc1cc2c(cc1OCC)C1C(C(=O)NCc3cccnc3)c3ccccc3C(=O)N1CC2 (stereo not given)
Return: 4.02

Enquiry: // lookup maximum fold change for COc1ccc(-c2cn3c4ccccc4n(N)c3n2)cc1OC
Return: 3.73

Enquiry: // lookup maximum fold change for C=CC[n+]1c(/C=C2\C=CC=CN2C)sc2ccccc21
Return: 13.8

Enquiry: // lookup maximum fold change for CCO/C=N/c1oc(C)c(C)c1C#N
Return: 3.22

Enquiry: // lookup maximum fold change for CCOC(=O)c1cnc(SC)nc1NC(=O)CSCc1csc2c1CCCC2
Return: 3.61

Enquiry: // lookup maximum fold change for CCOc1ccc(/C=C2\SC(N3CC(C)OC(C)C3)=NC2=O)cc1 (stereo not given)
Return: 2.08

Enquiry: // lookup maximum fold change for CCOc1cc(C2c3c(-c4ccccc4O)n[nH]c3C(=O)N2CCO)ccc1OCc1ccccc1 (stereo not given)
Return: 3.55

Enquiry: // lookup maximum fold change for O=C(Cn1ncn2nc(-c3cccs3)cc2c1=O)N1CCN(c2ccccn2)CC1
Return: 3.03

Enquiry: // lookup maximum fold change for CCOC(=O)c1cnc(SC)nc1N
Return: 3.4

Enquiry: // lookup maximum fold change for Cc1c(C(=O)NCc2ccccc2Cl)oc2c1-c1[nH]ncc1CC2
Return: 2.79

Enquiry: // lookup maximum fold change for CCOc1ccccc1-n1cc2c(c1-c1cccc(C)c1)c(=O)n(C)c(=O)n2C
Return: 1.83

Enquiry: // lookup maximum fold change for COCCN1C(=O)c2[nH]nc(-c3ccccc3O)c2C1c1ccccc1 (stereo not given)
Return: 3.01

Enquiry: // lookup maximum fold change for CCOc1cc(CNc2ncc(-c3ccc(Br)cc3)n2C)ccc1O
Return: 2.06

Enquiry: // lookup maximum fold change for COc1ccc(OC)c(/C=C2/N=C(c3ccc(OC)c(Br)c3)OC2=O)c1
Return: 2.65

Enquiry: // lookup maximum fold change for CC(NC(=O)C1CCC(CNS(=O)(=O)c2ccccc2)CC1)c1ccccc1 (stereo not given)
Return: 2.1

Enquiry: // lookup maximum fold change for CCOC(=O)c1cnc2c(C)c(Cl)ccc2c1NCCCN1CCOCC1
Return: 12.1

Enquiry: // lookup maximum fold change for COCCNCc1c(C(=O)O)c(C)n(Cc2ccccc2F)c1C
Return: 2.4

Enquiry: // lookup maximum fold change for Cc1ccc(OCC(=O)N(Cc2ccccc2F)C2CCS(=O)(=O)C2)cc1C (stereo not given)
Return: 2.91

Enquiry: // lookup maximum fold change for c1ccc2nc3c(nc2c1)c1ccccc1n3CN1CCCCC1
Return: 10.9

Enquiry: // lookup maximum fold change for Cc1nc(N2C(=O)c3oc4ccccc4c(=O)c3C2c2ccc(Cl)cc2)sc1C (stereo not given)
Return: 2.07
